# Tested on: HIV-1 strains geno-phenotypically resistant to EFV
# test.summary: p24 production susceptibility test, Table 7, MT-2 cells
# Assay type: cell-based
# recorded.conditions: Human immunodeficiency virus 1, MT2, MT-2; Gen. L100I K103N; read-out: E.C.50 HCQ
endpoint.name: EC50 (µM)
Give the value in µM but do not write µM after it.

Qu. // fetch EC50 given entry CCN(CCO)CCCC(C)Nc1ccnc2cc(Cl)ccc12 (stereo not shown) [HCQ, hydroxychloroquine]
Ans. 3.2

* * *

# Test system: HIV-1 clinical isolated, characterised by mutations in the protease gene inducing geno-phenotypic resistance to SQV
# test.summary: p24 production susceptibility test (ACTG protocol), Table 8
# Assay type: cell-based
# recorded.conditions: Human immunodeficiency virus 1, PBMC, Gen. G48V V82A, read-out: E.C.50 HCQ
endpoint.name: EC50 (µM)
Report only the number, with the unit µM understood.

Qu. Answer with reported EC50 of CCN(CCO)CCCC(C)Nc1ccnc2cc(Cl)ccc12 (stereo not shown) [HCQ, hydroxychloroquine]
Ans. 3

Where do the numbers come from? From patent US20040006103A1.
